Data provenance is the supplement of paper PMC5579334.

# Tested on: STS26T
# PROCEDURE_TEXT: relative IC50 (inflection point of fitted dose-response curve, CellTox-Green cytotoxicity, 72 h; top asymptote may be below 50%); higher = less potent
READOUT_NAME: relative IC50 (nM)
Quick reminder: number only, in nM, skip the unit.

Past entries and their recorded results:
[
  {
    "CHEMICAL_STRUCTURE": "O=C(c1cc(Cc2n[nH]c(=O)c3ccccc23)ccc1F)N1CCN(C(=O)C2CC2)CC1",
    "relative IC50 (nM)": 3430
  },
  {
    "CHEMICAL_STRUCTURE": "Nc1ccccc1NC(=O)c1ccc(CNc2nccc(-c3cccnc3)n2)cc1",
    "relative IC50 (nM)": 1720
  },
  {
    "CHEMICAL_STRUCTURE": "Cc1[nH]c2ccccc2c1CCNCc1ccc(/C=C/C(=O)NO)cc1",
    "relative IC50 (nM)": 64.9
  },
  {
    "CHEMICAL_STRUCTURE": "CCCCCCCCCCCCCCCCCCOP(=O)([O-])OC1CC[N+](C)(C)CC1",
    "relative IC50 (nM)": 963
  },
  {
    "CHEMICAL_STRUCTURE": "CCNC(=O)c1noc(-c2cc(C(C)C)c(O)cc2O)c1-c1ccc(CN2CCOCC2)cc1",
    "relative IC50 (nM)": 42.1
  }
]

Give recorded relative IC50. Cc1cnc(NC(=O)Nc2cc(Br)c(C)cc2OC[C@@H]2CNCCO2)cn1
330

Give recorded relative IC50. COc1cc2c(NC3CCN(C(C)C)CC3)nc(N3CCC(F)(F)CC3)nc2cc1OCCCN1CCCC1
2910

Give recorded relative IC50. COc1cc2ncnc(Nc3ccc(F)c(Cl)c3)c2cc1OCCCN1CCOCC1
3930

====

# Tested on: HSC1 (primary human Schwann cells)
# PROCEDURE_TEXT: drug sensitivity score (DSS, CellTiter-Glo viability, 72 h) (DSS (dimensionless)); higher = more sensitive; extreme values may be limits of the assay
READOUT_NAME: drug sensitivity score
Give your answer as a number; write no unit.

Past entries and their recorded results:
[
  {
    "MOLECULE": "CNNCc1ccc(C(=O)NC(C)C)cc1 [Procarbazine] (max concentration tested 10000 nM)",
    "drug sensitivity score": 0
  },
  {
    "MOLECULE": "C=CC[C@@H]1/C=C(\\C)C[C@H](C)C[C@H](OC)[C@H]2O[C@@](O)(C(=O)C(=O)N3CCCC[C@H]3C(=O)O[C@H](/C(C)=C/[C@@H]3CC[C@@H](O)[C@H](OC)C3)[C@H](C)[C@@H](O)CC1=O)[C@H](C)C[C@@H]2OC [Tacrolimus] (max concentration tested 10000 nM)",
    "drug sensitivity score": 0.469
  },
  {
    "MOLECULE": "CC[C@H](Nc1ncnc2[nH]cnc12)c1nc2cccc(F)c2c(=O)n1-c1ccccc1 [Idelalisib] (max concentration tested 10000 nM)",
    "drug sensitivity score": 0
  },
  {
    "MOLECULE": "CC(=O)N(O)CCCCCNC(=O)CCC(=O)N(O)CCCCCNC(=O)CCC(=O)N(O)CCCCCN [Deferoxamine aq] (max concentration tested 10000 nM)",
    "drug sensitivity score": 5.55
  },
  {
    "MOLECULE": "O=C(O)CC[C@H]1CC[C@@](c2cc(F)ccc2F)(S(=O)(=O)c2ccc(Cl)cc2)CC1 [MK-0752] (max concentration tested 1000 nM)",
    "drug sensitivity score": 1.49
  }
]

Give recorded drug sensitivity score. Cn1cncc1[C@@](N)(c1ccc(Cl)cc1)c1ccc2c(c1)c(-c1cccc(Cl)c1)cc(=O)n2C [Tipifarnib] (max concentration tested 10000 nM)
6.55

Give recorded drug sensitivity score. C[C@]1(c2nc3c(C(N)=O)cccc3[nH]2)CCCN1 [Veliparib] (max concentration tested 10000 nM)
0.338

Give recorded drug sensitivity score. Cc1c(Cn2c(C)nc3c(C(=O)O)cc(N4CCOCC4)cc32)cccc1C(F)(F)F (max concentration tested 10000 nM)
0

Give recorded drug sensitivity score. Cc1c(C(=O)Nc2ccc(N3C[C@@H](C)O[C@@H](C)C3)nc2)cccc1-c1ccc(OC(F)(F)F)cc1 [Erismodegib] (max concentration tested 10000 nM)
0

Give recorded drug sensitivity score. C[C@]12CC[C@H](O)CC1=CC[C@@H]1[C@@H]2CC[C@]2(C)C(c3cccnc3)=CC[C@@H]12 [Abiraterone] (max concentration tested 5000 nM)
0.394

====

# Test system: HSC1 (primary human Schwann cells)
# PROCEDURE_TEXT: % inhibition of CellTiter-Glo viability at highest tested concentration (72 h), relative to DMSO and benzethonium chloride controls; higher = more inhibition
READOUT_NAME: % inhibition (%)
Quick reminder: number only, in %, skip the unit.

[
  {
    "MOLECULE": "C[C@@H]1C[C@H]2[C@@H]3CCC4=CC(=O)C=C[C@]4(C)[C@@]3(F)[C@@H](O)C[C@]2(C)[C@@]1(O)C(=O)CO [Dexamethasone] (max concentration tested 10000 nM)",
    "% inhibition, %": -11.8
  }
]

Give recorded % inhibition. COc1cc2c(cc1O)CC[C@@H]1[C@@H]2CC[C@]2(C)[C@@H](O)CC[C@@H]12 [2-methoxyestradiol] (max concentration tested 10000 nM)
66.2

Give recorded % inhibition. C/C(=C\c1csc(C)n1)[C@@H]1C[C@@H]2O[C@]2(C)CCC[C@H](C)[C@H](O)[C@@H](C)C(=O)C(C)(C)[C@@H](O)CC(=O)O1 [Patupilone] (max concentration tested 1000 nM)
70

Give recorded % inhibition. Nc1nc2[nH]cnc2c(=S)[nH]1 [Thioguanine] (max concentration tested 10000 nM)
10.4

====

# key: entry, value: % inhibition
# System: STS26T
# PROCEDURE_TEXT: % inhibition of CellTiter-Glo viability at highest tested concentration (72 h), relative to DMSO and benzethonium chloride controls; higher = more inhibition
Show the value, then the unit it is measured in.

[
  {
    "COMPOUND": "Nc1ncnc2c1c(COc1cccc(Cl)c1)nn2C1CCOCC1 (max concentration tested 10000 nM)",
    "TARGET_OR_SYSTEM": "STS26T",
    "% inhibition": "18.3%"
  },
  {
    "COMPOUND": "C=CCN(/C=C1/C(=O)O[C@H](COC)[C@@]2(C)C1=C(O)C(=O)C1=C2[C@H](OC(C)=O)C[C@]2(C)C(=O)CC[C@@H]12)CC=C [Sonolisib] (max concentration tested 10000 nM)",
    "TARGET_OR_SYSTEM": "STS26T",
    "% inhibition": "11.4%"
  },
  {
    "COMPOUND": "Cc1ccc(C(=O)N(CCCN)[C@@H](c2oc3cc(Cl)ccc3c(=O)c2Cc2ccccc2)C(C)C)cc1 (max concentration tested 100 nM)",
    "TARGET_OR_SYSTEM": "STS26T",
    "% inhibition": "2.24%"
  }
]

Give recorded % inhibition. O=C(O)CNC(=O)c1c(O)c2ccccc2n(Cc2ccccc2)c1=O [IOX-2] (max concentration tested 50000 nM)
16.4%

====

# Tested on: S462
# PROCEDURE_TEXT: relative IC50 (inflection point of fitted dose-response curve, CellTiter-Glo viability, 72 h; top asymptote may be below 50% inhibition); higher = less potent
Output: class label from relative IC50. Mapping: Low (below 40 nM), Medium (40 nM to below 1000 nM), High (1000 nM or more)

[
  {
    "COMPOUND": "CC(C)(C#N)c1cc(Cn2cncn2)cc(C(C)(C)C#N)c1",
    "CLASS": "High"
  },
  {
    "COMPOUND": "Oc1ncnc2[nH]ncc12",
    "CLASS": "High"
  },
  {
    "COMPOUND": "CS(=O)(=O)c1ccc(C(=O)Nc2ccc(Cl)c(-c3ccccn3)c2)c(Cl)c1",
    "CLASS": "High"
  },
  {
    "COMPOUND": "COc1cc(O)c2c(c1)/C=C/C[C@H](O)[C@H](O)C(=O)/C=C\\C[C@H](C)OC2=O",
    "CLASS": "High"
  },
  {
    "COMPOUND": "CN[C@@H](C)C(=O)N[C@H]1CN(C(=O)CC(C)C)CC[C@H]2CC[C@@H](C(=O)NC(c3ccccc3)c3ccccc3)N2C1=O",
    "CLASS": "High"
  }
]

Into which category would you place NC(=O)Nc1cc(-c2cccc(F)c2)sc1C(=O)N[C@H]1CCCNC1 ?
Medium

Into which category would you place Nc1ccccc1NC(=O)c1ccc(CNc2nccc(-c3cccnc3)n2)cc1 ?
Medium

====

# Test system: HS-PSS
# PROCEDURE_TEXT: relative IC50 (inflection point of fitted dose-response curve, CellTox-Green cytotoxicity, 72 h; top asymptote may be below 50%); higher = less potent
# key: entry, value: relative IC50

Past entries and their recorded results:
[
  {
    "CHEMICAL_STRUCTURE": "NC[C@@](O)(c1ccc(Cl)cc1)c1ccc(-c2cn[nH]c2)cc1",
    "relative IC50": "2780 nM"
  },
  {
    "CHEMICAL_STRUCTURE": "CO[C@H]1[C@@H](N(C)C(=O)c2ccccc2)C[C@@H]2O[C@@]1(C)n1c3ccccc3c3c4c(c5c6ccccc6n2c5c31)C(=O)NC4",
    "relative IC50": "> 10000 nM"
  },
  {
    "CHEMICAL_STRUCTURE": "CCCCC(=O)OCC(=O)[C@]1(O)Cc2c(O)c3c(c(O)c2[C@@H](O[C@H]2C[C@H](NC(=O)C(F)(F)F)[C@H](O)[C@H](C)O2)C1)C(=O)c1c(OC)cccc1C3=O",
    "relative IC50": "> 5000 nM"
  },
  {
    "CHEMICAL_STRUCTURE": "CNC(=O)c1ccc(C)c(-n2c(C)cc(OCc3ccc(F)cc3F)c(Br)c2=O)c1",
    "relative IC50": "> 1000 nM"
  },
  {
    "CHEMICAL_STRUCTURE": "CNC(=O)c1ccccc1Nc1nc(Nc2ccc3c(c2OC)CCC[C@H](N2CCN(CCO)CC2)C3)ncc1Cl",
    "relative IC50": "1090 nM"
  }
]

Give recorded relative IC50. O=C(Nc1ccc(OC(F)(F)F)cc1)c1sccc1NCc1ccnc2ccccc12
> 2500 nM

Give recorded relative IC50. CNC(=O)c1cccc(-c2ccc3c(N4CCOC[C@@H]4C)nc(N4CCOC[C@@H]4C)nc3n2)c1
> 10000 nM
